# MEASURED_ON: Recombinant KAT6A/MOZ (488-778) protein (Homo sapiens (Human), UniProt Q92794)
# Sequence (Q92794 488-778): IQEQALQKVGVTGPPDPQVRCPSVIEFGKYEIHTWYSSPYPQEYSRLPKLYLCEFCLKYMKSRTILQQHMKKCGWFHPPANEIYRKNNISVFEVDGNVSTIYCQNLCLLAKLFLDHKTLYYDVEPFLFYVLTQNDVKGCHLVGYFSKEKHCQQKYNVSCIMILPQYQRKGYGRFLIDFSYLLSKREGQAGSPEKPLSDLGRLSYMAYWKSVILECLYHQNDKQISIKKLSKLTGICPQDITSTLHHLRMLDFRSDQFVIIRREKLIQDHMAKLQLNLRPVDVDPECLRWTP
# PROCEDURE_DETAILS: KAT6A AlphaLISA Inhibition Screening Assay
# Format: biochemical
# STUDY_CONDITIONS: read-out: Average Kat6A % inhibition @ 10 μM; 10 μM test compound
# inhibition at 10 µM annotations
Give the quantity in %, number only.

Sample records with inhibition at 10 µM:
>  <COMPOUND>
CCc1ccc(OCc2ncon2)c(S(=O)(=O)Nc2noc3cc(Cn4cc(CNC(=O)OC)cn4)cc(OC)c23)c1 [Syn. Ex. 74]

>  <UNIT_LABEL>
%

>  <NUMBER>
100

$$$$
>  <COMPOUND>
CCc1ccc(OC)c(S(=O)(=O)Nc2noc3cc(Cn4cc(CNC(=O)[C@H](C)F)cn4)cc(OC)c23)c1 (single isomer, unassigned) [Syn. Ex. 47b]

>  <UNIT_LABEL>
%

>  <NUMBER>
100

$$$$
>  <COMPOUND>
C=C(F)C(=O)NCc1ccc(Oc2cc(OC)c3c(NS(=O)(=O)c4cc(CC)ccc4OC)noc3c2)nc1 [Syn. Ex. 51]

>  <UNIT_LABEL>
%

>  <NUMBER>
100

$$$$

Enquiry: What value of inhibition at 10 µM on Recombinant KAT6A/MOZ (488-778) protein (Homo sapiens (Human), UniProt Q92794) does COC(=O)NCc1cnn(Cc2cc3onc(NS(=O)(=O)c4ccccc4OC)c3c3c2CCO3)c1 [Syn. Ex. 134] have?
Return: 101

Enquiry: What value of inhibition at 10 µM on Recombinant KAT6A/MOZ (488-778) protein (Homo sapiens (Human), UniProt Q92794) does C#CC(=O)N1Cc2cn(Cc3cc(OC)c4c(NS(=O)(=O)c5cc(OC)ccc5OC)noc4c3)nc2C1 [Syn. Ex. 5] have?
Return: 100

Enquiry: What value of inhibition at 10 µM on Recombinant KAT6A/MOZ (488-778) protein (Homo sapiens (Human), UniProt Q92794) does CCc1ccc(OCC(=O)O)c(S(=O)(=O)Nc2noc3cc(Cn4cc(CNC(=O)OC)cn4)cc(OC)c23)c1 [Syn. Ex. 62] have?
Return: 100

----------
# MEASURED_ON: Recombinant KAT6A/MOZ (488-778) protein (Homo sapiens (Human), UniProt Q92794)
# PROCEDURE_DETAILS: KAT6A AlphaLISA Inhibition Screening Assay
# Format: biochemical
# STUDY_CONDITIONS: read-out: Average Kat6A % inhibition @ 1 μM; 1 μM test compound
# Method: The Kat6a inhibitory activity of test compounds was determined using an Alpha Screen-based detection method. The assay reactions were conducted in a volume of 10 μL in Alpha Plate, White 384 well plate (cat #6008280, Perkin Elmer). The enzymatic reactions were performed in assay buffer pH 8.0 (50 mM Tris-HCl, 0.1 mM EDTA, 0.01% Tween-20, 1 mM Dithiothreitol, 0.1% BSA (fatty acid free) and 330 nM TSA (Trichostatin A)). […]
# inhibition at 1 µM annotations
Give the quantity in %, number only.

Sample records with inhibition at 1 µM:
>  <COMPOUND>
COC(=O)NCc1cnn(Cc2cc3onc(NS(=O)(=O)c4ccccc4OC)c3c3c2CCO3)c1 [Syn. Ex. 134]

>  <MEASURED_ON>
Recombinant KAT6A/MOZ (488-778) protein (Homo sapiens (Human), UniProt Q92794)

>  <PROPERTY>
inhibition at 1 µM

>  <UNIT_LABEL>
%

>  <NUMBER>
97

$$$$
>  <COMPOUND>
CCc1ccc(OCc2cccnc2)c(S(=O)(=O)Nc2noc3cc(Cn4cc(CNC(=O)OC)cn4)cc(OC)c23)c1 [Syn. Ex. 123]

>  <MEASURED_ON>
Recombinant KAT6A/MOZ (488-778) protein (Homo sapiens (Human), UniProt Q92794)

>  <PROPERTY>
inhibition at 1 µM

>  <UNIT_LABEL>
%

>  <NUMBER>
100

$$$$
>  <COMPOUND>
C=C(F)C(=O)NCc1cnn(Cc2cc(OC)c3c(NS(=O)(=O)c4cc(CC)ccc4OCc4nn[nH]n4)noc3c2)c1 [Syn. Ex. 72]

>  <MEASURED_ON>
Recombinant KAT6A/MOZ (488-778) protein (Homo sapiens (Human), UniProt Q92794)

>  <PROPERTY>
inhibition at 1 µM

>  <UNIT_LABEL>
%

>  <NUMBER>
100

$$$$

Here is the next item to consider.
Enquiry: Bench note: what inhibition at 1 µM did C=C(F)C(=O)NCc1cnn(Cc2cc(OC)c3c(NS(=O)(=O)c4cc(C)ccc4OC)noc3c2)c1 [Syn. Ex. 89] show?
Return: 100

----------
# MEASURED_ON: Recombinant KAT6A/MOZ (488-778) protein (Homo sapiens (Human))
# PROCEDURE_DETAILS: KAT6A AlphaLISA Inhibition Screening Assay
# Type: biochemical
# STUDY_CONDITIONS: read-out: Average Kat6A % inhibition @ 10 μM; 10 μM test compound
# inhibition at 10 µM annotations

Sample records with inhibition at 10 µM:
>  <MOLECULE>
CCC(=O)N1Cc2cnn(Cc3cc(OC)c4c(NS(=O)(=O)c5ccccc5OC)noc4c3)c2C1 [Syn. Ex. 3]

>  <MEASURED_ON>
Recombinant KAT6A/MOZ (488-778) protein (Homo sapiens (Human))

>  <inhibition at 10 µM>
100%

$$$$
>  <MOLECULE>
COc1ccc(S(=O)(=O)Nc2noc3cc(Cn4cc(CNS(C)(=O)=O)cn4)cc(OC)c23)c(OC)c1 [Syn. Ex. 10]

>  <MEASURED_ON>
Recombinant KAT6A/MOZ (488-778) protein (Homo sapiens (Human))

>  <inhibition at 10 µM>
100%

$$$$

Enquiry: Bench note: what inhibition at 10 µM did C=C(F)C(=O)NCc1cnn(Cc2cc(OC)c3c(NS(=O)(=O)c4cc(CC)ccc4OC)noc3c2)c1 [Syn. Ex. 14] show?
Return: 100%

Enquiry: Bench note: what inhibition at 10 µM did C=C(F)C(=O)NCc1cnn(Cc2cc(OC)c3c(NS(=O)(=O)c4cc(CC)ccc4OCCNC(=O)OC)noc3c2)c1 [Syn. Ex. 79] show?
Return: 100%

Enquiry: Bench note: what inhibition at 10 µM did C=C(F)C(=O)NCc1cnc(Oc2cc(OC)c3c(NS(=O)(=O)c4cc(CC)ccc4OC)noc3c2)o1 [Syn. Ex. 99] show?
Return: 100%

Enquiry: Bench note: what inhibition at 10 µM did C=C(F)C(=O)NCc1cnn(Cc2cc(OC)c3c(NS(=O)(=O)c4cc(CC)ccc4OCC(=N)NO)noc3c2)c1 [Syn. Ex. 118] show?
Return: 100%

Enquiry: Bench note: what inhibition at 10 µM did CCc1ccc(OC)c(S(=O)(=O)Nc2noc3cc(Oc4ncc(CNC(=O)OC)s4)cc(OC)c23)c1 [Syn. Ex. 101] show?
Return: 100%

Enquiry: Bench note: what inhibition at 10 µM did C=C(F)C(=O)N1Cc2cnn(Cc3cc(OC)c4c(NS(=O)(=O)c5cc(CC)ccc5OC)noc4c3)c2C1 [Syn. Ex. 13] show?
Return: 100%

----------
# MEASURED_ON: Recombinant KAT6A/MOZ (488-778) protein (Homo sapiens (Human), UniProt Q92794)
# PROCEDURE_DETAILS: KAT6A AlphaLISA Inhibition Screening Assay
# Format: biochemical
# STUDY_CONDITIONS: read-out: Average Kat6A % inhibition @ 1 μM; 1 μM test compound
# inhibition at 1 µM annotations
Give the quantity in %, number only.

Sample records with inhibition at 1 µM:
>  <COMPOUND>
CCc1ccc(S(=O)(=O)Nc2noc3cc(Cn4cc(CNC(=O)OC)cn4)c4c(c23)OCCC4)c(OC)c1 [Syn. Ex. 140]

>  <inhibition at 1 µM, %>
106

$$$$
>  <COMPOUND>
C#CC(=O)NCc1cnn(Cc2cc(OC)c3c(NS(=O)(=O)c4cc(C)c(C)cc4OC)noc3c2)c1 [Syn. Ex. 19]

>  <inhibition at 1 µM, %>
100

$$$$
>  <COMPOUND>
CCc1ccc(OC)c(S(=O)(=O)Nc2noc3cc(Cn4cc(CNC(=O)C#CCO)cn4)cc(OC)c23)c1 [Syn. Ex. 49]

>  <inhibition at 1 µM, %>
94

$$$$

Enquiry: Bench note: what inhibition at 1 µM did CCc1ccc(OCc2ccnc(OC)c2)c(S(=O)(=O)Nc2noc3cc(Cn4cc(CNC(=O)OC)cn4)cc(OC)c23)c1 [Syn. Ex. 95] show?
Return: 100

----------
# System: ZR-75-1 cells
# PROCEDURE_DETAILS: Cell Titer-Glo Luminescent Cell Viability Assay in ZR-75-1 Cells
# Format: cell-based
# STUDY_CONDITIONS: Homo sapiens, compounds replenished every 48 hours till day 10, CellTiter-Glo
pEC50: −log10 of the molar value.
# pEC50 annotations

Sample records with pEC50:
>  <MOLECULE>
C=C(F)C(=O)NCc1cnn(Cc2cc(OC(F)F)c3c(NS(=O)(=O)c4cc(CC)ccc4OC)noc3c2)c1 [Syn. Ex. 52]

>  <MEASURED_ON>
ZR-75-1 cells

>  <PROPERTY>
pEC50

>  <RESULT>
6.00 to 7.00

$$$$
>  <MOLECULE>
CCc1ccc(OCC(=O)OC)c(S(=O)(=O)Nc2noc3cc(Cn4cc(CNC(=O)OC)cn4)cc(OC)c23)c1 [Syn. Ex. 55]

>  <MEASURED_ON>
ZR-75-1 cells

>  <PROPERTY>
pEC50

>  <RESULT>
> 7.00

$$$$
>  <MOLECULE>
C=C(F)C(=O)NCc1cnn(Cc2cc(OC)c3c(NS(=O)(=O)c4cc(CC)ccc4OC)noc3c2)c1 [Syn. Ex. 14]

>  <MEASURED_ON>
ZR-75-1 cells

>  <PROPERTY>
pEC50

>  <RESULT>
> 7.00

$$$$
>  <MOLECULE>
CCc1ccc(OC)c(S(=O)(=O)Nc2noc3cc(Oc4ccc(CNC(=O)OC)cn4)cc(OC)c23)c1 [Syn. Ex. 56]

>  <MEASURED_ON>
ZR-75-1 cells

>  <PROPERTY>
pEC50

>  <RESULT>
6.00 to 7.00

$$$$

Enquiry: Bench note: what pEC50 did C=C(F)C(=O)NCc1ccc(Oc2cc(OC)c3c(NS(=O)(=O)c4cc(CC)ccc4OC)noc3c2)nc1 [Syn. Ex. 51] show?
Return: 6.00 to 7.00
